# STUDY TARGET: human coreTAPL (TAPL, ABCB9) (Homo sapiens, UniProt Q9NP78, R288A)
# Sequence (Q9NP78 143-766 R288A): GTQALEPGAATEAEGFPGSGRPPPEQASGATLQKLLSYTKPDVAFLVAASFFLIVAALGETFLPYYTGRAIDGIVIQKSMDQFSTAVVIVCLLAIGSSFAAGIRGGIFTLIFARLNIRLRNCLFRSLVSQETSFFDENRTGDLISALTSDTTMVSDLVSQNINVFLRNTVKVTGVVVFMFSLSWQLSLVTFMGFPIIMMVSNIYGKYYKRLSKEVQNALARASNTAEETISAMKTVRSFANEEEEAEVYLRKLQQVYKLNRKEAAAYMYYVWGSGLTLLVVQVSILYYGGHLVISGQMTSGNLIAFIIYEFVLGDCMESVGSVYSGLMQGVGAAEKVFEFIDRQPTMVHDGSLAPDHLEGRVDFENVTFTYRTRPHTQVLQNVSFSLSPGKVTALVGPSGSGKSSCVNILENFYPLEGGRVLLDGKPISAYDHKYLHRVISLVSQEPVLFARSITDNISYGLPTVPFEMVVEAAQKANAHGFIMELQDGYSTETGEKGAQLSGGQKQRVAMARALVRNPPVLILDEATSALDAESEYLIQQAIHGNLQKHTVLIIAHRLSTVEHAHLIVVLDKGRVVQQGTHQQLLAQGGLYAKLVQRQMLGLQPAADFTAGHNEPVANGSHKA
# PROTOCOL SUMMARY: biochemical
PARAMETER MEASURED: IC50 (µM)
// units = µM; emit number, no label

Form field: reported IC50 of Nc1ncnc2c1ncn2[C@@H]1O[C@H](COP(=O)(O)OP(=O)(O)OP(=O)(O)O)[C@@H](O)[C@H]1O [ATP]
5.6

The reported measurements were obtained from paper PMC11267003.
